target: isolated fibrinogen receptor (glycoprotein IIb/IIIa) (Homo sapiens, UniProt P05106+P08514); construct: isolated from human thrombocytes and immobilized in microtitre plates; from tissue; host or cells: human thrombocytes (platelets), receptor isolated; assay: Inhibition of 125I-fibrinogen binding to the isolated, immobilized receptor (glycoprotein IIb/IIIa) (Test method 3); details: Ki, inhibition of the binding of 125I-fibrinogen, ADP-stimulated, isolated receptor immobilized in microtitre plates
Sequence (P08514 32-887 limits assumed): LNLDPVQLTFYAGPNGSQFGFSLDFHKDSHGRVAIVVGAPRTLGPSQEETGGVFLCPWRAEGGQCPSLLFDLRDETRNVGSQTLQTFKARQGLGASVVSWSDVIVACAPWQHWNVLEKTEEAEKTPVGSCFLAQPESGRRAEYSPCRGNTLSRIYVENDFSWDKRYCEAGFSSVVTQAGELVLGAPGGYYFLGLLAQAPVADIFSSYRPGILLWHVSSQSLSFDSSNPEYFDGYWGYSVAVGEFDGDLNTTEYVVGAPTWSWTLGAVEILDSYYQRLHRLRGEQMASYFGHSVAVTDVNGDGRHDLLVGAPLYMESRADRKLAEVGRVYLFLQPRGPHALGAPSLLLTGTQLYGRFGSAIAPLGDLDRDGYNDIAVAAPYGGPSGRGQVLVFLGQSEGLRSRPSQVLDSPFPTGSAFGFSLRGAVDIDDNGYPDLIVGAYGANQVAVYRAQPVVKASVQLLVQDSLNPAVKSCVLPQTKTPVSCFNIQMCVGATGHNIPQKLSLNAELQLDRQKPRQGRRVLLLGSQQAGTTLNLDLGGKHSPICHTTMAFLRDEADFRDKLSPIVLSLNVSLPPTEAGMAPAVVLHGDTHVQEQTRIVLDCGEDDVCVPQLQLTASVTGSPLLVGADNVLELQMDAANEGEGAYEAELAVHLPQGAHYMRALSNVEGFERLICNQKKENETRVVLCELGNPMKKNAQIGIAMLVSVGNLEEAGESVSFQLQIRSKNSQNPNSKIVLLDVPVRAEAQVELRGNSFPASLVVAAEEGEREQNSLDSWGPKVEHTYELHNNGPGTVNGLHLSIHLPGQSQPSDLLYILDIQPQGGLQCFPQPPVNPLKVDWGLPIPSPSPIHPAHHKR
Sequence (P08514 891-1039 partner limits assumed): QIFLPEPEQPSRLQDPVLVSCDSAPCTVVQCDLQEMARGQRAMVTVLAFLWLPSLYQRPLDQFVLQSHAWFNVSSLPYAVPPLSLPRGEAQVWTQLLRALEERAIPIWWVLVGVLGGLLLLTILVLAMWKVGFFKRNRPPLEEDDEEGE
Sequence (P05106 27-788): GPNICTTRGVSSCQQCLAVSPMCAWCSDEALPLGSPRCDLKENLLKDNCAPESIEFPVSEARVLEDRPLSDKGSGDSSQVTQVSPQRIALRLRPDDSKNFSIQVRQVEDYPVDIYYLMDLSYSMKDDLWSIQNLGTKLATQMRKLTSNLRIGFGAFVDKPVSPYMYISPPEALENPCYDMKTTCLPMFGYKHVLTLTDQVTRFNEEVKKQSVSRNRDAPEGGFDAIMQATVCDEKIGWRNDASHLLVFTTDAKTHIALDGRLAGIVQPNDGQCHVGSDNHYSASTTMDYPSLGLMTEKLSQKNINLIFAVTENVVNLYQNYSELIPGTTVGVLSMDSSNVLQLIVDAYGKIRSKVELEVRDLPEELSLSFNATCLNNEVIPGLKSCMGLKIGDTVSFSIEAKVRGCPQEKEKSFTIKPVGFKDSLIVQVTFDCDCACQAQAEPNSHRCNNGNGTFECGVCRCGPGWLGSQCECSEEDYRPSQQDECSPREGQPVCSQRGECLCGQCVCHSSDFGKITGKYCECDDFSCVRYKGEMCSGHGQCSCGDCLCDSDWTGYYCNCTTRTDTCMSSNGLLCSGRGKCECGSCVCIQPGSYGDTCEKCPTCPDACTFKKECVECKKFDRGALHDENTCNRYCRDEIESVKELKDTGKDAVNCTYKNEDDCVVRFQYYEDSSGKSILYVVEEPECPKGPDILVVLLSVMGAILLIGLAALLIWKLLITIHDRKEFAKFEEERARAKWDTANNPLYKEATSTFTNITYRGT
reported.property: Ki (nM)

CC1(c2ccc(C(=N)N)cc2)NC(=O)N(CC(=O)N[C@@H](CC(=O)O)C(=O)N[C@H](C(=O)O)c2ccccc2)C1=O (single isomer, unassigned) [Example 21]
1.9
CC1(c2ccc(C(=N)N)cc2)NC(=O)N(CC(=O)N[C@@H](CC(=O)O)C(=O)N[C@H](C(=O)O)c2ccccc2)C1=O (single isomer, unassigned) [Example 22]
0.15
